# System: angiogenesis genes in dermal microvascular endothelial cells
# TEST DETAILS: Real time RT-PCR of angiogenesis gene expression during endothelial tube formation
# Type: cell-based
# DETAILS: 1 μM SM, 24 hours
Parameter Log2 fold-change of gene expression: stard9: see the listing below.
EXPERIMENTAL ENDPOINT: Log2 fold-change of gene expression: stard9

COMPOUND: COC(=O)C1CC(=O)C(C(=O)OC)CC1=O (stereo not drawn)
MEAS VALUE: 0.5
--
COMPOUND: O=C1C(=Cc2ccccc2)C(NC2CCCCC2)c2ccccc21 (stereo not drawn)
MEAS VALUE: 0.1
--
COMPOUND: COc1ccc(CC2C(=O)NC(C)C(=O)N(C)C3Cc4ccc(cc4)Oc4cc(ccc4O)CC(C(=O)NC(C)C(=O)NC(C)C(=O)N2C)N(C)C3=O)cc1 (stereo not drawn)
MEAS VALUE: 0.0
--
COMPOUND: COc1cc2cc(c1Cl)N(C)C(=O)CC(OC(=O)C(C)C)C1(C)OC1C(C)C1CC(O)(NC(=O)O1)C(OC)/C=C/C=C(\C)C2 (stereo not drawn)
MEAS VALUE: 0.8
--
COMPOUND: CC1CCN(CC[S-])CC1.O.O.[Cl][Pt+]
MEAS VALUE: −0.9
--
COMPOUND: CCC(=O)OCN1C(=O)C=CC1=O
MEAS VALUE: −0.7

---

# Mean % Inhibition listing for each entry below
# TESTED TARGET: UniProtKB P35968
# Sequence (P35968 20-1356): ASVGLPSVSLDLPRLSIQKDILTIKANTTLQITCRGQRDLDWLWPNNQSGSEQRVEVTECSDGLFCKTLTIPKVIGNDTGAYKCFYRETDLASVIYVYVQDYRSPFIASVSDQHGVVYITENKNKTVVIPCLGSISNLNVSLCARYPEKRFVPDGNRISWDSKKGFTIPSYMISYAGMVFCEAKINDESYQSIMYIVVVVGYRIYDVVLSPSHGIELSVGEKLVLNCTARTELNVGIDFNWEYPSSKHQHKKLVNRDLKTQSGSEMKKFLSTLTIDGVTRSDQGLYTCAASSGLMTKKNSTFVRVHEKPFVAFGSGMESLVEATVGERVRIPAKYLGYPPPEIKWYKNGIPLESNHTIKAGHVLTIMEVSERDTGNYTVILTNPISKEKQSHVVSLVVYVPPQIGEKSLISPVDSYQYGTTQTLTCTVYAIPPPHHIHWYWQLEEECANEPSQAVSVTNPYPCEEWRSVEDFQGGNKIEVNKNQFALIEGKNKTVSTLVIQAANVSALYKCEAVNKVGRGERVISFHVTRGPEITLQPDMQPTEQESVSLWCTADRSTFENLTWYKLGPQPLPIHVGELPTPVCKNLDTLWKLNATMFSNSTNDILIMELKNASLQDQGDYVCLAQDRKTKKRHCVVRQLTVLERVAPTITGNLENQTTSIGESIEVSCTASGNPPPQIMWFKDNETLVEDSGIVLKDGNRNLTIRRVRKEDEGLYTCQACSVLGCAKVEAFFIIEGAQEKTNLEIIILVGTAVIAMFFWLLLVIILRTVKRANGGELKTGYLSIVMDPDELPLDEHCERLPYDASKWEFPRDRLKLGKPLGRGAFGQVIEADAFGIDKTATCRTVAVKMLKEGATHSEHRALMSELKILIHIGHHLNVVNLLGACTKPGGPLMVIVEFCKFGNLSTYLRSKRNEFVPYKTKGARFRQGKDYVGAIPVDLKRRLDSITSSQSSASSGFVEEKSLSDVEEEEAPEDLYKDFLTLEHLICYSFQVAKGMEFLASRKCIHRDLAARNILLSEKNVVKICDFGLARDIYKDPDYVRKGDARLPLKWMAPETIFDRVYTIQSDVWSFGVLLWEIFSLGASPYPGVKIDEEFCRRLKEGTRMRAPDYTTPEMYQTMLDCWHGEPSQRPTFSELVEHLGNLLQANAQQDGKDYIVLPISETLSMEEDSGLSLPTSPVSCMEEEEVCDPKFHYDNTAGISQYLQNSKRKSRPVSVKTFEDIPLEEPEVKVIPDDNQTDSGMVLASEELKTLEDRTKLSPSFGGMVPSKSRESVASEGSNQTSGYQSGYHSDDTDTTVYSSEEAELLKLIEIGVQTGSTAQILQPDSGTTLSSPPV
# TEST DETAILS: SelectScreen kinase activity profiling, KDR(VEGFR2)
# Type: biochemical
# Parameters: concentration or dose not given beside the values
# DETAILS: KDR(VEGFR2); mean of two independent trials

MOLECULE: O=[As](O)(O)c1ccc(Cc2ccc([As](=O)(O)O)cc2)cc1
Mean % Inhibition (%): 77

MOLECULE: O=C1C(=Cc2ccccc2)C(NC2CCCCC2)c2ccccc21 (centres unmarked)
Mean % Inhibition (%): 26

MOLECULE: Nc1cc[c]([Hg])cc1.Nc1nc2c(ncn2C2OC(CO)C(O)C2O)c(=[SH+])[nH]1 (centres unmarked)
Mean % Inhibition (%): 105

MOLECULE: O=C(O)C1CCCN1Cc1ccc2c(c1)OCO2 (centres unmarked)
Mean % Inhibition (%): 6

MOLECULE: O=C(O)c1c(Br)c(Br)c(Br)c(Br)c1C1c2ccc(O)cc2Oc2cc(O)ccc21
Mean % Inhibition (%): 103

MOLECULE: Cc1ccc(S(=O)(=O)OCC(=O)O)cc1
Mean % Inhibition (%): 11

MOLECULE: COc1ccc(CC2C(=O)NC(C)C(=O)N(C)C3Cc4ccc(cc4)Oc4cc(ccc4O)CC(C(=O)NC(C)C(=O)NC(C)C(=O)N2C)N(C)C3=O)cc1 (centres unmarked)
Mean % Inhibition (%): 5

MOLECULE: CC1CCN(CC[S-])CC1.O.O.[Cl][Pt+]
Mean % Inhibition (%): 14

---

# TESTED TARGET: FGFR1 (Homo sapiens)
# Sequence (P11362 398-822 limits assumed): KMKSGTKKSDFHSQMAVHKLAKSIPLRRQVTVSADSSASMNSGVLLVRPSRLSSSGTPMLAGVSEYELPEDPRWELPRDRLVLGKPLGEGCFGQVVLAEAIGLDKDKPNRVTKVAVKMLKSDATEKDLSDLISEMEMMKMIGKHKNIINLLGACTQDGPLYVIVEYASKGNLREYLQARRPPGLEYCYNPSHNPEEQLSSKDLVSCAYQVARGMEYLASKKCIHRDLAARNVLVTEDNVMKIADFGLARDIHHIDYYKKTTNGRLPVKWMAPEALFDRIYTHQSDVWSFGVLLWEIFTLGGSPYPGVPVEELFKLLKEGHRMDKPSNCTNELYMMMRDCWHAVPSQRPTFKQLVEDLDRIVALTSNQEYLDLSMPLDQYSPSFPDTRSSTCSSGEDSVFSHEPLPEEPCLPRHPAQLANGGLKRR
# TEST DETAILS: SelectScreen kinase activity profiling, FGFR1
# Assay type: biochemical
# Set-up: concentration or dose not given beside the values
# DETAILS: mean of two independent trials
# Mean % Inhibition values compiled below

COMPOUND: COc1ccc(CC2C(=O)NC(C)C(=O)N(C)C3Cc4ccc(cc4)Oc4cc(ccc4O)CC(C(=O)NC(C)C(=O)NC(C)C(=O)N2C)N(C)C3=O)cc1 (centres unmarked)
UNIT OF MEASUREMENT: %
Mean % Inhibition: 3
--
COMPOUND: O=C(c1no[n+]([O-])c1C(=O)c1csc2ccccc12)c1csc2ccccc12
UNIT OF MEASUREMENT: %
Mean % Inhibition: −2
--
COMPOUND: O=C1C(=Cc2ccccc2)C(NC2CCCCC2)c2ccccc21 (centres unmarked)
UNIT OF MEASUREMENT: %
Mean % Inhibition: 5
--
COMPOUND: COc1ccc(-c2csc3c2-n2cccc2C3=O)cc1
UNIT OF MEASUREMENT: %
Mean % Inhibition: 3
--
COMPOUND: CC(=N[N-]C(=S)SCc1ccccc1)c1ccccn1.[Cl][Cu+]
UNIT OF MEASUREMENT: %
Mean % Inhibition: 6
--
COMPOUND: CCCCC[CH2][Hg][S]c1nc(N)nc2[nH]cnc12
UNIT OF MEASUREMENT: %
Mean % Inhibition: 1
--
COMPOUND: O=C(O)C1CCCN1Cc1ccc2c(c1)OCO2 (centres unmarked)
UNIT OF MEASUREMENT: %
Mean % Inhibition: 4
--
COMPOUND: CC(C)(C)c1c2c(c(C(C)(C)C)c3c1OCN(Cc1ccccc1)C3)OCN(Cc1ccccc1)C2
UNIT OF MEASUREMENT: %
Mean % Inhibition: 6
--
COMPOUND: Cc1ccc(S(=O)(=O)OCC(=O)O)cc1
UNIT OF MEASUREMENT: %
Mean % Inhibition: 3
--
COMPOUND: COc1cc2cc(c1Cl)N(C)C(=O)CC(OC(=O)C(C)C)C1(C)OC1C(C)C1CC(O)(NC(=O)O1)C(OC)/C=C/C=C(\C)C2 (centres unmarked)
UNIT OF MEASUREMENT: %
Mean % Inhibition: 3
--
COMPOUND: COc1ccc(NCc2c(O)ccc3ccccc23)cc1
UNIT OF MEASUREMENT: %
Mean % Inhibition: 2
--
COMPOUND: Nc1cc[c]([Hg])cc1.Nc1nc2c(ncn2C2OC(CO)C(O)C2O)c(=[SH+])[nH]1 (centres unmarked)
UNIT OF MEASUREMENT: %
Mean % Inhibition: 6
--
COMPOUND: CC1=C(Br)C(=O)C(C)=C(Br)C1=O.Cc1c(O)c(Br)c(C)c(O)c1Br
UNIT OF MEASUREMENT: %
Mean % Inhibition: 7
--
COMPOUND: Cc1cc(O)c(-c2cc(O)c(C)cc2O)cc1O
UNIT OF MEASUREMENT: %
Mean % Inhibition: 6
--
COMPOUND: CC(C)(C)c1cc(C#N)cc(Br)c1OP(=O)(Oc1c(Br)cc(C#N)cc1C(C)(C)C)c1ccccc1
UNIT OF MEASUREMENT: %
Mean % Inhibition: 4
--
COMPOUND: O=C1c2ccccc2NC(c2cc(Cl)cc(Cl)c2O)N1CCc1ccccn1 (centres unmarked)
UNIT OF MEASUREMENT: %
Mean % Inhibition: 4
--
COMPOUND: COC(=O)c1ccc(CCc2cc(O)ccc2O)cc1
UNIT OF MEASUREMENT: %
Mean % Inhibition: 3

---

# Test system: angiogenesis genes in dermal microvascular endothelial cells
# TEST DETAILS: Real time RT-PCR of angiogenesis gene expression during endothelial tube formation
# Format: cell-based
# DETAILS: 1 μM SM, 24 hours; 1st listing (r95)
# reported Log2 fold-change of gene expression: Robo4; entries follow
EXPERIMENTAL ENDPOINT: Log2 fold-change of gene expression: Robo4

MOLECULE: COC(=O)C1CC(=O)C(C(=O)OC)CC1=O (stereo not drawn) [Compound 122567]
TESTED TARGET: angiogenesis genes in dermal microvascular endothelial cells
MEAS VALUE: 0.0
--
MOLECULE: COc1ccc(CC2C(=O)NC(C)C(=O)N(C)C3Cc4ccc(cc4)Oc4cc(ccc4O)CC(C(=O)NC(C)C(=O)NC(C)C(=O)N2C)N(C)C3=O)cc1 (stereo not drawn) [compound 259969]
TESTED TARGET: angiogenesis genes in dermal microvascular endothelial cells
MEAS VALUE: −4.1
--
MOLECULE: CCC(=O)OCN1C(=O)C=CC1=O [compound 19630]
TESTED TARGET: angiogenesis genes in dermal microvascular endothelial cells
MEAS VALUE: 0.1
--
MOLECULE: CC1CCN(CC[S-])CC1.O.O.[Cl][Pt+] [compound 292596]
TESTED TARGET: angiogenesis genes in dermal microvascular endothelial cells
MEAS VALUE: −1.2
--
MOLECULE: O=C1C(=Cc2ccccc2)C(NC2CCCCC2)c2ccccc21 (stereo not drawn) [compound 150117]
TESTED TARGET: angiogenesis genes in dermal microvascular endothelial cells
MEAS VALUE: −0.2
--
MOLECULE: COc1cc2cc(c1Cl)N(C)C(=O)CC(OC(=O)C(C)C)C1(C)OC1C(C)C1CC(O)(NC(=O)O1)C(OC)/C=C/C=C(\C)C2 (stereo not drawn) [compound 292222]
TESTED TARGET: angiogenesis genes in dermal microvascular endothelial cells
MEAS VALUE: 1.1

---

# TESTED TARGET: UniProt:P35968
# TEST DETAILS: SelectScreen kinase activity profiling, KDR(VEGFR2)
# Assay type: biochemical
# Design: concentration or dose not given beside the values
# DETAILS: KDR(VEGFR2); mean of two independent trials
Form field: Mean % Inhibition (one value per entry).
EXPERIMENTAL ENDPOINT: Mean % Inhibition (%)

COMPOUND: CCCCC[CH2][Hg][S]c1nc(N)nc2[nH]cnc12
EXPERIMENTAL ENDPOINT: Mean % Inhibition
MEAS VALUE: 39
//
COMPOUND: CC(=N[N-]C(=S)SCc1ccccc1)c1ccccn1.[Cl][Cu+]
EXPERIMENTAL ENDPOINT: Mean % Inhibition
MEAS VALUE: 18
//
COMPOUND: CC(C)(C)c1cc(O)ccc1O
EXPERIMENTAL ENDPOINT: Mean % Inhibition
MEAS VALUE: 7
//
COMPOUND: CC1=C(Br)C(=O)C(C)=C(Br)C1=O.Cc1c(O)c(Br)c(C)c(O)c1Br
EXPERIMENTAL ENDPOINT: Mean % Inhibition
MEAS VALUE: 99
//
COMPOUND: CSC(=[SH+])[N-]N=Cc1cccc(C)n1.CSC(=[SH+])[N-]N=Cc1cccc(C)n1.[Cu]
EXPERIMENTAL ENDPOINT: Mean % Inhibition
MEAS VALUE: 20
//
COMPOUND: C1=Cc2ccccc2C1.C=C(C)c1ccccc1.[N-]=[N+]=Nc1ccccc1
EXPERIMENTAL ENDPOINT: Mean % Inhibition
MEAS VALUE: 4
//
COMPOUND: NC(=O)SCC(=O)Nc1ccc2ncccc2c1
EXPERIMENTAL ENDPOINT: Mean % Inhibition
MEAS VALUE: 16
//
COMPOUND: CC(C)(O)/C=C/C(=O)C(C)(O)C1C(O)CC2(C)C3CC=C4C(C=C(O)C(=O)C4(C)C)C3(C)C(=O)CC12C (stereo not drawn)
EXPERIMENTAL ENDPOINT: Mean % Inhibition
MEAS VALUE: 9
//
COMPOUND: Cc1cc(O)c(-c2cc(O)c(C)cc2O)cc1O
EXPERIMENTAL ENDPOINT: Mean % Inhibition
MEAS VALUE: 47
